protocol.text: drug combination growth inhibition, ovarian cancer – cell-based, oncology-focused library, rucaparib conditional, profiling panel (AID 1508598)
condition.context: patient-derived ovarian cancer cells, CellTiter-Glo viability, 144 h; at 1.25 µM; OCI-C5x cells; without rucaparib
Calls of active or inactive are those of the source.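 Rule for the calls: active = normalized viability below 100% at a tested concentration; inactive = the rest.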
Outcome codes: y (active), n (inactive)

> print(dat)
                            compound.smiles  answer.label
1  OCCn1cc(-c2ccc3c(c2)CCC3=NO)c(-c2ccncc2)n1             n
2  CCC(C)(C)C(=O)O[C@@H]1C[C@@H](C)C=C2C=C[C@H](C)[C@@H](CC[C@@H]3C[C@@H](O)CC(=O)O3)[C@H]21             y
3  CC1(C)C=C(CN2C/C(=C/c3ccc(F)cc3)C(=O)/C(=C/c3ccc(F)cc3)C2)C(C)(C)N1O             n
4  C=C1/C(=C/C=C2\CCC[C@@]3(C)[C@H]2CC[C@H]3[C@H](C)/C=C/[C@@H](C)C(C)C)C[C@H](O)C[C@@H]1O             n
